Reference source: PubChem BioAssay AID316

# Tested on: P1534 leukemia ip, CD2F1 mice, survival T/C
# method.notes: NCI In Vivo Anticancer Drug Screen. Data for tumor model P1534 Leukemia (intraperitoneal) in CD2F1 (CDF1) mice
# measurement.setup: endpoint: mean survival time; dose: 30.0 mg/kg/injection; schedule: Q01DX010 (ip); vehicle: saline; higher = longer survival
Inconclusive results and toxic doses are left out.

# compound, assay.system, T/C
measured = [
    ("CC[C@]12C=CCN3CC[C@@]4(c5ccc(OC)cc5N(C)[C@H]4[C@@](O)(C(=O)OC)[C@@H]1OC(C)=O)[C@@H]32", "P1534 leukemia ip, CD2F1 mice, survival T/C", "96 % of control"),
    ("C/C=C1\\CN2C3C[C@H]1C(C(=O)OC)[C@H]2Cc1c3[nH]c2ccccc12 (some centres not stated)", "P1534 leukemia ip, CD2F1 mice, survival T/C", "93 % of control"),
    ("CCC12CC(C(=O)OC)=C3Nc4cc(OC)ccc4C34CCN(CC3OC31)C42 (configuration not stated)", "P1534 leukemia ip, CD2F1 mice, survival T/C", "96 % of control"),
    ("CC[C@]12C=CCN3CC[C@@]4(c5ccc(OC)cc5N(C)[C@H]4[C@@](O)(C(=O)OC)[C@@H]1O)[C@@H]32", "P1534 leukemia ip, CD2F1 mice, survival T/C", "100 % of control"),
    ("C[N+](C)(C)c1ncnc2nc[nH]c12", "P1534 leukemia ip, CD2F1 mice, survival T/C", "110 % of control"),
    ("Clc1ncnc2nc[nH]c12", "P1534 leukemia ip, CD2F1 mice, survival T/C", "105 % of control"),
    ("C/C=C1/CN[C@H]2Cc3c([nH]c4ccccc34)[C@@H](O)C[C@@H]1C2C(=O)OC (some centres not stated)", "P1534 leukemia ip, CD2F1 mice, survival T/C", "96 % of control"),
]
